Answer each item with its documented MIC.
- Tested on: P. aeruginosa CDC-0095
- testSummary: microbe, parasite or virus in culture
- Assay type: cell-based
- statedConditions: Pseudomonas aeruginosa, CDC0095, read-out: Minimum inhibitory concentration, P. aeruginosa CDC-0095

The following molecules have reported results that may help.
| molecule | MIC |
| --- | --- |
| O=C(O)c1c(F)ccc2c1OB(O)[C@@H](NC(=O)[C@H](NC(=O)N1CCN(C3CCN(C(=O)c4ccc(F)c(O)c4Cl)CC3)C1=O)c1cc(F)c(O)c(O)c1Cl)C2 [Example 438] | < 1 µg/mL |
| O=C(NCCCS(=O)(=O)N1CCN(C(=O)NC(C(=O)N[C@H]2Cc3ccc(F)c(C(=O)O)c3OB2O)c2cc(F)c(O)c(O)c2Cl)C1=O)Nc1ccncc1 (some centres unmarked) [Example 291] | > 128 µg/mL |

Could I get MIC for every one of these entries?
1. O=C(NCCCN1CCN(C(=O)NC(C(=O)N[C@H]2Cc3ccc(F)c(C(=O)O)c3OB2O)c2cc(F)c(O)c(O)c2Cl)C(=O)C1=O)c1c(F)cncc1Cl (some centres unmarked) [Example 403]
2. O=C(NCCN1CCN(C(=O)NC(C(=O)N[C@H]2Cc3ccc(F)c(C(=O)O)c3OB2O)c2cc(F)c(O)c(O)c2Cl)C1=O)Nc1ccncc1 (some centres unmarked) [Example 250]
3. O=C(NCCCN1CCN(C(=O)NC(C(=O)N[C@H]2Cc3ccc(F)c(C(=O)O)c3OB2O)c2cc(F)c(O)c(O)c2Cl)C(=O)C1=O)c1cc(O)cc(O)c1 (some centres unmarked) [Example 423]

Reply:
1: 2 to 4 µg/mL; 2: 32 to 64 µg/mL; 3: < 1 µg/mL

----------
For each record, write down the corresponding MIC.
- Tested on: B. thailandensis ATCC 700388
- testSummary: microbe, parasite or virus in culture
- Format: cell-based
- statedConditions: Burkholderia thailandensis, ATCC700388, read-out: Minimum inhibitory concentration (MIC), B. thailandensis ATCC 700388

Previously resolved entries follow.
| compound | MIC |
| --- | --- |
| O=C(O)c1c(F)ccc2c1OB(O)[C@@H](NC(=O)C(NC(=O)N1CCN(C3CCN(Cc4cccc(O)c4)CC3)C1=O)c1cc(F)c(O)c(O)c1Cl)C2 (some centres unmarked) [Example 605] | < 1 µg/mL |
| O=C(NCCCN1CCN(C(=O)N[C@H](C(=O)N[C@H]2Cc3ccc(F)c(C(=O)O)c3OB2O)c2cc(F)c(O)c(O)c2Cl)C(=O)C1=O)c1cccc(O)c1Cl [Example 302] | > 128 µg/mL |
| O=C(O)c1c(F)ccc2c1OB(O)[C@@H](NC(=O)C(NC(=O)N1CCN(C3CCN(C(=O)c4cc(O)cc(O)c4)CC3)C(=O)C1=O)c1cc(F)c(O)c(O)c1Cl)C2 (some centres unmarked) [Example 309] | < 1 µg/mL |
| O=C(O)c1c(F)ccc2c1OB(O)[C@@H](NC(=O)[C@H](NC(=O)N1CCN(C3CCN(Cc4ccncc4)CC3)C1=O)c1cc(F)c(O)c(O)c1Cl)C2 [Example 493] | < 1 µg/mL |

Next up:
Query: Fill blank: measured MIC of the compound O=C(CN1CCN(C(=O)N[C@@H](C(=O)N[C@H]2Cc3ccc(F)c(C(=O)O)c3OB2O)c2cc(F)c(O)c(O)c2Cl)C(=O)C1=O)NCc1ccncc1 [Example 239] is ____.
Reply: 8 to 16 µg/mL

Source: patent US20240270762A1
